In this section, each of the molecules is paired with its reported residual activity.
Molecular target: PTK6 (human)
Experiment: radiometric filter-binding kinase assay, Kinase HotSpot
Settings: compound 0.5 µM; ATP 10 µM
Express it in %; write the number only.

>>> df
                              smiles_string  measured_value
0  O=C1NC(=O)c2c1c1c3ccccc3[nH]c1c1[nH]c3cc(Br)ccc3c21            92.7
1  N#CCCc1ccc2c(c1)-c1[nH]c3ccc([N+](=O)[O-])cc3c1CC(=O)N2            94.6
2       CCOc1cc2ncnc(Nc3cccc(Br)c3)c2cc1OCC            27.7
3          O=C(c1ccccc1)c1ccc(N2CCOCC2)cc1O            98.2
4  O=c1c2ccccc2[nH]c(=S)n1CCN1CCC(=C(c2ccc(F)cc2)c2ccc(F)cc2)CC1             100
5  COc1cc2c(Nc3ccc(Br)cc3F)ncnc2cc1OCC1CCN(C)CC1            7.28
6  c1ccc(-c2cnc(Nc3ccc(OCCN4CCCC4)cc3)s2)cc1            80.8
7          COc1cccc(-c2cc(=O)c3ccccc3o2)c1N            92.6
8  COc1cc2c(cc1OC)-c1[nH]nc(Nc3cccc(F)c3)c1C2              81
9  Cn1cc(/C=C2\C(=O)Nc3ccc(S(N)(=O)=O)cc32)c2ccccc21            80.2

Q: Could you share what residual activity was measured for `O=c1cc(N2CCOCC2)oc2c(-c3ccccc3)cccc12` , tested on PTK6 (human)?
Result: 96

Q: Look up residual activity with PTK6 (human) for this molecule: `FC(F)(F)c1ccc(/C=C/c2nc(COc3ccc(CCCCn4ccnn4)cc3)co2)cc1`
Result: 97.8

Q: So what residual activity did `O=C1NC(=O)c2cc(Nc3ccc(F)cc3)c(Nc3ccc(F)cc3)cc21` get with PTK6 (human)?
Result: 95.1

Q: Find residual activity (PTK6 (human)) for the entry `CCc1nc(-c2ccc(OC)cc2)[nH]c1-c1ccncc1`
Result: 88.5

Q: Enter reported residual activity observed with PTK6 (human) for `COc1cc2c(N3CCN(C(=O)Nc4ccc(OC(C)C)cc4)CC3)ncnc2cc1OCCCN1CCCCC1`
Result: 92.9

Q: Recorded residual activity for `N/C(=N\N=C/c1ccc(-c2cccc([N+](=O)[O-])c2)o1)N[N+](=O)[O-]` with PTK6 (human), please?
Result: 101

###

Target: MUSK (human) (UniProt O15146)
Sequence (O15146 whole entry, looked up): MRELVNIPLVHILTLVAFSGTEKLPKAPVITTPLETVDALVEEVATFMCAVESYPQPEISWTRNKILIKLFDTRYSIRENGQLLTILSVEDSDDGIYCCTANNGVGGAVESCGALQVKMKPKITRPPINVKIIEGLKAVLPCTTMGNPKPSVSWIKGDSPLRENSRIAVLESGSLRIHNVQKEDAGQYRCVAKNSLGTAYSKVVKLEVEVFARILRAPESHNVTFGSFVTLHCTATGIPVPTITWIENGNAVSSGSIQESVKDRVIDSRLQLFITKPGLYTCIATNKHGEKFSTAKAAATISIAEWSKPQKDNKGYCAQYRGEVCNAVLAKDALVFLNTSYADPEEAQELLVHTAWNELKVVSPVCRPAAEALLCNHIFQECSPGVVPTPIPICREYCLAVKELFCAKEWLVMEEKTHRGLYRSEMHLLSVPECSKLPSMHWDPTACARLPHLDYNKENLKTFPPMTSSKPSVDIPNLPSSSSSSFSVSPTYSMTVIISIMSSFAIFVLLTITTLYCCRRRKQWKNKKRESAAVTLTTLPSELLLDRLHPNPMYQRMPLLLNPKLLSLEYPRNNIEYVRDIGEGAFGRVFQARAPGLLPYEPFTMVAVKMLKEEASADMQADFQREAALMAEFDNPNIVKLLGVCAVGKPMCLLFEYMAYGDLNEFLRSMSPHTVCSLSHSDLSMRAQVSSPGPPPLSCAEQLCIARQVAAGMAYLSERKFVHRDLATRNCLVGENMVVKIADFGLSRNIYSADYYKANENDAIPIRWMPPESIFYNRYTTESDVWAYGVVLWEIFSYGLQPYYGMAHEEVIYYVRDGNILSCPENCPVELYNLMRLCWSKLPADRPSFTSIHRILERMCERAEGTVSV
Assay: radiometric filter-binding kinase assay, Kinase HotSpot
Settings: compound 0.5 µM; ATP 10 µM
Assign labels as follows, please: 1 for residual activity below 90%; 0 for residual activity equal to or exceeding 90%.

>>> print(df.to_string())
                              smiles_string  discrete_label
0    N#Cc1c(NC(=O)c2cccc3ccccc23)sc2c1CCCC2               0
1  N/C(=N\N=C/c1ccc(-c2cccc([N+](=O)[O-])c2)o1)N[N+](=O)[O-]               0
2          COc1cccc(-c2cc(=O)c3ccccc3o2)c1N               0
3      COc1cc2ncnc(Nc3ccc(O)c(Br)c3)c2cc1OC               1
4  c1ccc(-c2cnc(Nc3ccc(OCCN4CCCC4)cc3)s2)cc1               1
5  O=c1c2ccccc2[nH]c(=S)n1CCN1CCC(=C(c2ccc(F)cc2)c2ccc(F)cc2)CC1               0
6  CN[C@@H]1C[C@H]2O[C@@](C)([C@@H]1OC)n1c3ccccc3c3c4c(c5c6ccccc6n2c5c31)C(=O)NC4               1
7  O=S(=O)(NCCNC/C=C/c1ccc(Br)cc1)c1cccc2cnccc12               1

Q: Given `CCc1nc(-c2ccc(OC)cc2)[nH]c1-c1ccncc1` , is recorded residual activity strictly lower than 90%?
Result: 1

Q: Quick check: residual activity of `COc1cc2c(N3CCN(C(=O)Nc4ccc(OC(C)C)cc4)CC3)ncnc2cc1OCCCN1CCCCC1` under 90%?
Result: 0

Q: Hi there! Is residual activity for `N#CCCc1ccc2c(c1)-c1[nH]c3ccc([N+](=O)[O-])cc3c1CC(=O)N2` below 90%, do you know?
Result: 1

Q: Hi there! Is residual activity for `Cn1cc(/C=C2\C(=O)Nc3ccc(S(N)(=O)=O)cc32)c2ccccc21` below 90%, do you know?
Result: 0

Q: Answer whether the compound `O=c1[nH]c2ccccc2n1C1CCN(Cc2ccc(-c3nc4cc5[nH]cnc5cc4nc3-c3ccccc3)cc2)CC1` has residual activity strictly less than 90%
Result: 0

###

Molecular target: STK33 (human)
Test: radiometric filter-binding kinase assay, Kinase HotSpot
Details: compound 0.5 µM; ATP 10 µM
Catalogue of residual activity values

Worked examples, 3 molecules total:
                              smiles_string      property_name  measured_value
0  O=c1c2ccccc2[nH]c(=S)n1CCN1CCC(=C(c2ccc(F)cc2)c2ccc(F)cc2)CC1  residual activity            106%
1  CC(C)(C)n1nc(Cc2cccc3ccccc23)c2c(N)ncnc21  residual activity           99.7%
2        CCCCc1c(-c2ccc(O)cc2)[nH]c2nccnc12  residual activity           80.8%

Q: Field request: residual activity | item: `O=c1cc(N2CCOCC2)oc2c(-c3ccccc3)cccc12`
Result: 92.1%

Q: Quick one: residual activity of `O=C1NC(=O)c2c1c1c3ccccc3[nH]c1c1[nH]c3cc(Br)ccc3c21` ?
Result: 71.9%

Q: Entry under review: `COc1cccc(-c2cc(=O)c3ccccc3o2)c1N` . Reported residual activity?
Result: 98.2%

Q: Query: residual activity; subject: `O=c1c(-c2ccc(F)cc2)c(-c2ccncc2)[nH]n1-c1ccc(Cl)cc1`
Result: 101%

Q: Would you kindly share the measured residual activity for `CCOc1cc2ncnc(Nc3cccc(Br)c3)c2cc1OCC` ?
Result: 93.9%

###

Target: SGK3 (human)
Assay: radiometric filter-binding kinase assay, Kinase HotSpot
Conditions: compound 0.5 µM; ATP 10 µM
Property Name: residual activity (%)
Field: numeric (%). Do not append units.

Some compounds with recorded residual activity:
In [3]: df
Out[3]:
                              smiles_string  measured_value
0  FC(F)(F)c1ccc(/C=C/c2nc(COc3ccc(CCCCn4ccnn4)cc3)co2)cc1            89.2
1      COc1cc2ncnc(Nc3ccc(O)c(Br)c3)c2cc1OC            94.5
2  COc1cc2c(cc1OC)-c1[nH]nc(Nc3cccc(F)c3)c1C2            92.7
3  O=C1NC(=O)c2c1c1c3ccccc3[nH]c1c1[nH]c3cc(Br)ccc3c21            97.2
4          O=C(c1ccccc1)c1ccc(N2CCOCC2)cc1O             105

Below: the item to evaluate.
Q: Form field: reported residual activity of `O=c1cc(N2CCOCC2)oc2c(-c3ccccc3)cccc12`
Result: 109

###

Target: OXSR1 (human) (UniProt O95747)
Sequence (O95747 whole entry, looked up): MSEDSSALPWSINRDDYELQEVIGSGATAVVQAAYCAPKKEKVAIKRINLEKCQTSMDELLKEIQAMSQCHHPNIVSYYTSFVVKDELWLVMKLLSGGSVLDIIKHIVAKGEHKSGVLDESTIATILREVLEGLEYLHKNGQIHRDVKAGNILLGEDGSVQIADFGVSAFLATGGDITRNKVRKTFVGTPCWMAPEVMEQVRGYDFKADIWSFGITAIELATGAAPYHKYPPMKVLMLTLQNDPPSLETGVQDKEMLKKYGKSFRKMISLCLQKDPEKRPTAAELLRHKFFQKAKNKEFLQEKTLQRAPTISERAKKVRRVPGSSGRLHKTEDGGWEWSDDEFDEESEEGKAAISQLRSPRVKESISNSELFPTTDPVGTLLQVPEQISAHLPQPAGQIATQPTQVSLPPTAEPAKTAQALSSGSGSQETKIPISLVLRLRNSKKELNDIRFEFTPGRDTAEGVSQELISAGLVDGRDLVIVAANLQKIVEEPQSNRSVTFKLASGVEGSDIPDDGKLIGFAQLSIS
Assay: radiometric filter-binding kinase assay, Kinase HotSpot
Conditions: compound 0.5 µM; ATP 10 µM
# key: entry, value: residual activity
Give the quantity in %, number only.

Worked examples, 2 compounds total:
                              smiles_string                     measured_on  measured_value
0  c1ccc(-c2cnc(Nc3ccc(OCCN4CCCC4)cc3)s2)cc1  OXSR1 (human) (UniProt O95747)            85.3
1          COc1cccc(-c2cc(=O)c3ccccc3o2)c1N  OXSR1 (human) (UniProt O95747)            91.2

Q: Fill in the blank: the reported residual activity of `CCOc1cc2ncnc(Nc3cccc(Br)c3)c2cc1OCC` is ____.
Result: 102

Q: So what's the measured residual activity for this one? `O=c1c(-c2ccc(F)cc2)c(-c2ccncc2)[nH]n1-c1ccc(Cl)cc1`
Result: 83.3

Q: Item under review: `COc1cc2c(cc1OC)-c1[nH]nc(Nc3cccc(F)c3)c1C2` . Reported residual activity?
Result: 121

Q: What measured residual activity goes with `N#CCCc1ccc2c(c1)-c1[nH]c3ccc([N+](=O)[O-])cc3c1CC(=O)N2` ?
Result: 94.6

###

Quick reference: residual activity of the listed items.
Target: PLK1 (human)
Assay: radiometric filter-binding kinase assay, Kinase HotSpot
Conditions: compound 0.5 µM; ATP 10 µM
Please give a number only; it is taken to be in %.

                              smiles_string      property_name  measured_value
0  COc1cc2c(cc1OC)-c1[nH]nc(Nc3cccc(F)c3)c1C2  residual activity             102
1  O=C1NC(=O)c2c1c1c3ccccc3[nH]c1c1[nH]c3cc(Br)ccc3c21  residual activity            91.2
2   Cc1cc(Nc2nc(-c3ccccc3)nc3ccccc23)n[nH]1  residual activity            97.1
3  FC(F)(F)c1ccc(/C=C/c2nc(COc3ccc(CCCCn4ccnn4)cc3)co2)cc1  residual activity            98.3
4  O=S(=O)(NCCNC/C=C/c1ccc(Br)cc1)c1cccc2cnccc12  residual activity            98.7

Q: Form field: reported residual activity of `O=c1cc(N2CCOCC2)oc2c(-c3ccccc3)cccc12`
Result: 67.1
